MEASURED_ON: human EAAT1 (hEAAT1) (Homo sapiens, UniProt P43003)
Sequence (P43003 whole entry, the tested form may be a part): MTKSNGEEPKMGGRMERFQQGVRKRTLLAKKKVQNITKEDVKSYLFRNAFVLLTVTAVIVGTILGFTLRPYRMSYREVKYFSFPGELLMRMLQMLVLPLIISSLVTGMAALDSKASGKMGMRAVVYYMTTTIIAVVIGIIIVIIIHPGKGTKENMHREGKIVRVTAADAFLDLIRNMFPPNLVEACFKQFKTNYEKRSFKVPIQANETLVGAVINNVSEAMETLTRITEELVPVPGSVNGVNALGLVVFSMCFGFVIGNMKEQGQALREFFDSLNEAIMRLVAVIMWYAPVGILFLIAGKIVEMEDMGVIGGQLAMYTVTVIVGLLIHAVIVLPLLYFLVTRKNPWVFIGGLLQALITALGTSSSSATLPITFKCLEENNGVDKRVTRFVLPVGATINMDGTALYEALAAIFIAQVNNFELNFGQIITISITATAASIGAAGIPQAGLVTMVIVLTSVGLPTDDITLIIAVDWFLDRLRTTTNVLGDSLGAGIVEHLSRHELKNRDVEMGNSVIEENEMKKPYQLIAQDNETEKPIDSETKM
METHOD_SUMMARY: [3H]-D-Asp uptake assay, hEAAT1-HEK293 cells
Format: cell-based
ASSAY_CONTEXT: hEAAT1 IC50, [3H]-D-Asp uptake, HEK293 cells
pIC50: −log10 of the molar value.
RECORDED_ENDPOINT: pIC50

>>> reading("C#CCO[C@H](C(=O)O)[C@@H](N)C(=O)O (racemic) [DL-erythro-19c]")
4.00

---

MEASURED_ON: rat EAAT4 (rEAAT4) (Rattus norvegicus, UniProt O35921)
Sequence (O35921 1-561): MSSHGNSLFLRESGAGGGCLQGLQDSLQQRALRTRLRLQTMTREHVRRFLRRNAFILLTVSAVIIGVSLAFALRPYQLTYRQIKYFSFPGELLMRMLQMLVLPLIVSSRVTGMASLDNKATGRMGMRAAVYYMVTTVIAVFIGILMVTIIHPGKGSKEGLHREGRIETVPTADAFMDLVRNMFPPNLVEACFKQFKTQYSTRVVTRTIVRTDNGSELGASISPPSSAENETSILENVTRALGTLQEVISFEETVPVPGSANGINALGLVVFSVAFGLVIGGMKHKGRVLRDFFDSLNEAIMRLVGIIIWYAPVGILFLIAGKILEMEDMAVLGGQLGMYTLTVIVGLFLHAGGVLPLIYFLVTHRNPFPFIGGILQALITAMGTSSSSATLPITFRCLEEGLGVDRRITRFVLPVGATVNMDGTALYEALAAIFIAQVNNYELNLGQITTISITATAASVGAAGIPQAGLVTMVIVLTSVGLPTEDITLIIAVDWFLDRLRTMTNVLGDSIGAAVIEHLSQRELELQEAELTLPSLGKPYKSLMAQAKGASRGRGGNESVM
METHOD_SUMMARY: [3H]-D-Asp uptake assay, rEAAT4-tsA201 cells
Format: cell-based
pIC50: −log10 of the molar value.
RECORDED_ENDPOINT: pIC50

>>> reading("N[C@H](C(=O)O)[C@H](OCc1ccsc1)C(=O)O (racemic) [DL-threo-19b]")
5.37
>>> reading("N[C@H](C(=O)O)[C@H](OCC1CC1)C(=O)O (racemic) [DL-threo-19a]")
4.80
